biological target: human NAMPT (Homo sapiens); assay: Human recombinant enzyme assay (NMN fluorescence biochemical assay, activation of NAMPT); settings: Table A; human recombinant NAMPT, NMN formation, 60 min; read-out: EC50 Human
Task for the reader: assign each of the following molecules its reported pEC50.
Numbers only, as −log10 of the molar value.

{"molecule": "O=C(NCc1ccc(Cl)cc1)NC1CC2(C1)CN(C(=O)c1cccc(-n3cccc3)c1)C2", "pEC50": 5.28}
{"molecule": "COc1ccc(CNC(=O)NC2CC3(C2)CC(C(=O)N2CCCc4cc(OC(F)F)ccc42)C3)cc1 (stereo not drawn)", "pEC50": 5.15}

Would you mind telling me what pEC50 value was observed for O=C(NCCCCC1CCN(c2ccncc2)CC1)NCc1ccc(Cl)cc1 ?
5.30

* * *

target: human NAMPT (Homo sapiens, UniProt P43490); test: Human recombinant enzyme assay (NMN fluorescence biochemical assay, activation of NAMPT); conditions: Table A; human recombinant NAMPT, NMN formation, 60 min
Sequence (P43490 whole entry): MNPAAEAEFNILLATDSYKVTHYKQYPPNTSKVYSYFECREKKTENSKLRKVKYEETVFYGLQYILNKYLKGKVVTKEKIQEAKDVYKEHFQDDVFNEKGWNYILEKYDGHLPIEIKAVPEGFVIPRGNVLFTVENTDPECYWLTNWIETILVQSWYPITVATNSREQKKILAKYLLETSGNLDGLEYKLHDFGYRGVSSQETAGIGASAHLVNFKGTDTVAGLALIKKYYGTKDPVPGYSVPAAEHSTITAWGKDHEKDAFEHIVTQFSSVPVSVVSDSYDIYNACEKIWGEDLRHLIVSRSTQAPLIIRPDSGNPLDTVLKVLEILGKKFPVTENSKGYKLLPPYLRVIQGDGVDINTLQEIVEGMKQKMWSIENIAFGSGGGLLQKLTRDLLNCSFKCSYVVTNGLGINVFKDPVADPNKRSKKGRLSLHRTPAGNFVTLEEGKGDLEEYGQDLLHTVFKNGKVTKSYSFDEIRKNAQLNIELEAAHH
# binning rule on AC1.4 Human: group 1 = under 2 µM, group 2 = from 2 µM up to 7 µM, group 3 = 7 µM and over

{"compound": "COc1ccc(C(=O)N2CC[C@]3(C2)C[C@@H](NC(=O)NCc2ccc(Cl)cc2)C3)cc1", "classAssignment": "group 3"}
{"compound": "Cc1cccc(C)c1C(=O)N1CCC(CCCCNC(=O)NCc2ccc(Cl)cc2)CC1", "classAssignment": "group 1"}
{"compound": "O=C(NCc1ccc(Cl)cc1)NC1CC2(CC(Cc3cccnc3)C2)C1 (stereo not drawn)", "classAssignment": "group 1"}
{"compound": "Cc1ccc(C(=O)NCC2CC3(C2)CC(NC(=O)NCc2ccc(Cl)cc2)C3)cn1 (stereo not drawn)", "classAssignment": "group 1"}
{"compound": "NC(=O)c1ccc(CNC(=O)N[C@H]2C[C@H](C(=O)NCc3ccccc3)C2)cc1", "classAssignment": "group 3"}

Exam item: assign COc1ccc(CNC(=O)NC2CC3(C2)CC(C(=O)NCc2ccncc2)C3)cc1 (stereo not drawn) to the correct category.
group 3

And then O=C(NCCCCC1CCN(C(=O)c2ccccc2)CC1)NCc1ccc(Cl)cc1 , what is it?
group 1

Again, but for COc1ccc(CNC(=O)NC2CC3(C2)CC(C(=O)N2CCN(C(C)C)CC2)C3)cc1 (stereo not drawn)
group 2

Next up: Cc1ccc(C(=O)N2CC3(CC(NC(=O)NCc4cocn4)C3)C2)cc1
group 1

Also O=C(NCc1ccc(Cl)cc1)NC1CC2(CC(Cc3cnccn3)C2)C1 (stereo not drawn) , if possible.
group 2

* * *

Give AC1.4 Human for every item shown.
biological target: human NAMPT (Homo sapiens); assay: Human recombinant enzyme assay (NMN fluorescence biochemical assay, activation of NAMPT); conditions: Table A; human recombinant NAMPT, NMN formation, 60 min
Give bare numbers, in µM.

{"compound": "COc1ccc(CNC(=O)NC2CC3(C2)CC(C(=O)N(C)[C@@H](C)c2ccccc2F)C3)cc1 (stereo partly drawn)", "readoutUnit": "µM", "AC1.4 Human": 0.3}

Batch of 8 compounds: report AC1.4 Human for each.
1. COc1ccc(CNC(=O)NC2CC3(C2)CC(C(=O)NC(C)(C)c2ccccc2)C3)cc1 (stereo not drawn)
2. COc1ccc(CNC(=O)NC2CC3(C2)CC(C(=O)NC2CCCc4ccc(F)cc42)C3)cc1 (stereo in doubt) [Compound 97]
3. COc1ccc(CNC(=O)NC2CC3(C2)CC(C(=O)N[C@H]2C[C@H](c4ccccc4)C2)C3)cc1 (stereo partly drawn)
4. COc1ccc(CNC(=O)NC2CC3(C2)CC(C(=O)N[C@H]2CCc4ccccc42)C3)cc1 (stereo partly drawn)
5. COc1ccc(CNC(=O)NC2CC3(C2)CC(C(=O)NCC(C)(C)c2ccccc2OC)C3)cc1 (stereo not drawn)
6. CN1CCN(CC2CC3(C2)CC(NC(=O)NCc2ccc(Cl)cc2)C3)CC1=O (stereo not drawn)
7. CC(C(=O)N(C)Cc1ccccc1)C1CC2(CC(NC(=O)NCc3ccc(Cl)cc3)C2)C1 (stereo not drawn)
8. COc1ccccc1S(=O)(=O)N1CC2(CC(NC(=O)NCc3ccc(Cl)cc3)C2)C1

1: 3.9; 2: 1.3; 3: 4.4; 4: 2.9; 5: 1.4; 6: 3.4; 7: 2.4; 8: 13.2
